Target: T1, naked peptide DYGSESTSSM (human)
T1 peptide: DYGSESTSSM
Experiment: ELISA naked peptide; scFv 1 ug/mL; repI
Experimental: The peptides were synthesized naked or with a N-terminal Biotin modification with a purity of >98%. All four scFvs were verified by ELISA that can be detected with anti-His antibodies. ELISA was performed for scFv-peptide binding validation. Briefly, naked peptides were coated (50 μg/mL) in 0.58M carbonate-bicarbonate buffer pH9.5, 100 μL/well, 4° C. […]
measurement.kind: OD450
Quote the value and follow it with the unit of measurement.

// known answers, use as guide
1) Comparative antibody 1 (Comp-1) scFv, SEQ ID NO: 10 from WO2023/037125 A1, His-tagged (scFv) scFv: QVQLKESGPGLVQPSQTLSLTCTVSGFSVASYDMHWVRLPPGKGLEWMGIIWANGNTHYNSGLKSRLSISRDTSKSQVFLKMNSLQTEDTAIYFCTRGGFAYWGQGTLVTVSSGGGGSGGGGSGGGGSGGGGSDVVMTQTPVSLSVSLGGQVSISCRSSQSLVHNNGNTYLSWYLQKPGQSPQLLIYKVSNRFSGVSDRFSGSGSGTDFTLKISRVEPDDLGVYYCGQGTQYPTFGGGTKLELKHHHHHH = 0.02 OD
2) Comparative antibody 2 (Comp-2) scFv, 243LO326 (VH SEQ ID NO: 51 and VL SEQ ID NO: 52 of WO 2022/195028 A2), His-tagged (scFv) scFv: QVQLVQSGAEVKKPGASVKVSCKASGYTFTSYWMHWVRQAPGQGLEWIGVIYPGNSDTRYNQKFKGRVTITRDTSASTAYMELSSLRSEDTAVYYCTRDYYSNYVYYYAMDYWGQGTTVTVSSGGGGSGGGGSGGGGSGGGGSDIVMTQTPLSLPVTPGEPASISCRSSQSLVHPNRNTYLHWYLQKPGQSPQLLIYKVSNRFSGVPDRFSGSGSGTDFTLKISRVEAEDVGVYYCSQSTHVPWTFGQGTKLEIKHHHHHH = 0.02 OD
3) CCR9_HUM2 scFv (humanized anti-CCR9 scFv, SEQ ID NO: 17 with C-terminal 6xHis tag) (scFv) scFv: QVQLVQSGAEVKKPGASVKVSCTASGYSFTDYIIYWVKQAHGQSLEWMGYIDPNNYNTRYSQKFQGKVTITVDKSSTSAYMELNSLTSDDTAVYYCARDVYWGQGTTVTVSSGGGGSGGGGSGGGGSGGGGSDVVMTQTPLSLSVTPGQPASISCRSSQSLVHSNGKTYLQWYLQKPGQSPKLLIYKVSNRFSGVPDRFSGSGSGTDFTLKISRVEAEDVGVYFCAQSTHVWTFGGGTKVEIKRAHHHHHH = 0.02 OD

Turning now to a further record.
q: Value lookup for OD450; key = Comparative antibody 3 (Comp-3) scFv, SR_92R (Somovilla-Crespo et al. 2018), His-tagged (scFv) scFv: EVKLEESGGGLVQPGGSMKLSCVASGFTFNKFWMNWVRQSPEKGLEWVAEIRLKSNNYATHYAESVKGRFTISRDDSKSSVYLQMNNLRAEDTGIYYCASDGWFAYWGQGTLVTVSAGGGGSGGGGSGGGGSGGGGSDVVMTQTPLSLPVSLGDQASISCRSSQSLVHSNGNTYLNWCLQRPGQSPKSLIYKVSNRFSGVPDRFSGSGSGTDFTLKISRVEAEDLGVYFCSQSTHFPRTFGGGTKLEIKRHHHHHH
a: 0.03 OD
